Kindly supply the reported fold change of Tryptamine concentration values for the records listed here.
- Test system: Ruminococcus gnavus DSM 108212
- ASSAY DETAILS: fold change of Tryptamine concentration vs plate DMSO controls (fold change (ratio)); higher = more amine produced, active = hit call of the paper (significant change in both replicates, either direction)
- PROTOCOL CONDITIONS: incubation time: 27 h, anaerobic, 37 °C
Structures can show the parent of a compound that is named as a salt.
// return just the number, without any unit appended

Item: CC(C(=O)O)c1ccc2c(c1)CC(=O)c1ccccc1S2 (configuration not stated) [Zaltoprofen] (20 µM) | fold change of Tryptamine concentration: 1.12

Item: CCN(CC)C(C)CN1c2ccccc2Sc2ccccc21 (configuration not stated) [Ethopropazine hydrochloride] (20 µM) | fold change of Tryptamine concentration: 0.928

Item: C[C@H]1[C@H](NC(=O)/C(=N\OC(C)(C)C(=O)O)c2csc(N)n2)C(=O)N1S(=O)(=O)O [Aztreonam] (20 µM) | fold change of Tryptamine concentration: 1.05

Item: C#C[C@]1(O)CC[C@H]2[C@@H]3CCC4=Cc5oncc5C[C@]4(C)[C@H]3CC[C@@]21C [Danazol] (20 µM) | fold change of Tryptamine concentration: 1.03

Item: Cc1cc(=O)n(-c2ccccc2)n1C [Antipyrine] (20 µM) | fold change of Tryptamine concentration: 1.01

Item: CC(C)[C@H](N)C(=O)OCCOCn1cnc2c(=O)nc(N)[nH]c21 [Valacyclovir hydrochloride] (20 µM) | fold change of Tryptamine concentration: 1.02

Item: N[C@@H](Cc1cc(I)c(Oc2cc(I)c(O)c(I)c2)c(I)c1)C(=O)O [(L) Thyroxine] (20 µM) | fold change of Tryptamine concentration: 0.99

Item: Cc1cccc(C)c1NC(=O)C1CCCCN1C (configuration not stated) [Mepivacaine hydrochloride] (20 µM) | fold change of Tryptamine concentration: 1.06

Item: CC(C[N+](C)(C)C)OC(N)=O (configuration not stated) [Bethanechol chloride] (20 µM) | fold change of Tryptamine concentration: 1.01

Item: Cc1ccc(-c2ncc(Cl)cc2-c2ccc(S(C)(=O)=O)cc2)cn1 [Etoricoxib] (20 µM) | fold change of Tryptamine concentration: 1.1

Item: N=C(N)NCC1COC2(CCCCC2)O1 (configuration not stated) [Guanadrel sulfate] (20 µM) | fold change of Tryptamine concentration: 1.04

Item: CN(c1nccc(=O)[nH]1)C1CCN(c2nc3ccccc3n2Cc2ccc(F)cc2)CC1 [Mizolastine] (20 µM) | fold change of Tryptamine concentration: 0.973

Item: COC(=O)Nc1nc2cc(C(=O)c3ccc(F)cc3)ccc2[nH]1 [Flubendazol] (20 µM) | fold change of Tryptamine concentration: 0.934

Item: CC(C)NC[C@H](O)COc1ccc(CC(N)=O)cc1 [(S,-) Atenolol] (20 µM) | fold change of Tryptamine concentration: 0.944

Item: Nc1c2c(nc3ccccc13)CCCC2 [Tacrine hydrochloride] (20 µM) | fold change of Tryptamine concentration: 1.12

Item: COc1cnc(NS(=O)(=O)c2ccc(N)cc2)nc1 [Sulfameter] (20 µM) | fold change of Tryptamine concentration: 1.03

Item: CN1CCC(OC(c2ccccc2)c2ccccc2)CC1 [Diphenylpyraline hydrochloride] (20 µM) | fold change of Tryptamine concentration: 0.999

====

Kindly supply the reported fold change of Cadaverine concentration values for the records listed here.
- Test system: Escherichia coli IAI1
- ASSAY DETAILS: fold change of Cadaverine concentration vs plate DMSO controls (fold change (ratio)); higher = more amine produced, active = hit call of the paper (significant change in both replicates, either direction)
- PROTOCOL CONDITIONS: incubation time: 27 h, anaerobic, 37 °C
Counter-ions that a name gives are not always drawn.

Item: CCN1CCCC1CNC(=O)c1cc(S(N)(=O)=O)ccc1OC (stereo not drawn) [Sulpiride] (20 µM) | fold change of Cadaverine concentration: 1.03 (inactive)

Item: COc1ccc2c(c1)C(=O)N(CCc1ccc(S(=O)(=O)NC(=O)NC3CCCCC3)cc1)C(=O)C2(C)C [Gliquidone] (20 µM) | fold change of Cadaverine concentration: 1.04 (inactive)

Item: CC(=O)OCC(=O)[C@@]1(O)CC[C@H]2[C@@H]3CCC4=CC(=O)CC[C@]4(C)[C@H]3[C@@H](O)C[C@@]21C [Cortisol acetate] (20 µM) | fold change of Cadaverine concentration: 0.97 (inactive)

Item: CC12CC3CC(C)(C1)CC(N)(C3)C2 [Memantine hydrochloride] (20 µM) | fold change of Cadaverine concentration: 0.995 (inactive)

Item: CCN(CC)CCOC(=O)C(Cc1cccc2ccccc12)CC1CCCO1 (stereo not drawn) [Nafronyl oxalate] (20 µM) | fold change of Cadaverine concentration: 1.03 (inactive)

Item: CC(=O)Nc1c(I)c(NC(C)=O)c(I)c(C(=O)O)c1I [Diatrizoic acid dihydrate] (20 µM) | fold change of Cadaverine concentration: 1.01 (inactive)

Item: CN(C)CCN(Cc1ccc(Cl)cc1)c1ccccn1 [Chloropyramine hydrochloride] (20 µM) | fold change of Cadaverine concentration: 1.58 (active)

Item: O=C(O)/C=C/c1ccc(Cn2ccnc2)cc1 [Ozagrel hydrochloride] (20 µM) | fold change of Cadaverine concentration: 1.01 (inactive)

====

- Test system: Clostridium sporogenes DSM 1664
- ASSAY DETAILS: growth (OD595) fold change vs plate DMSO controls (fold change (ratio)); higher = more growth
- PROTOCOL CONDITIONS: incubation time: 27 h, anaerobic, 37 °C
Counter-ions that a name gives are not always drawn.
ASSAY READOUT: growth

Item: C[N+]1(CCCCC[N+]2(C)CCCC2)CCCC1 [Pentolinium bitartrate] (20 µM) | growth: 0.933

Item: C[C@]12CC[C@H]3[C@@H](CCC4=CC(=O)CC[C@@]43C)[C@@H]1CC[C@@H]2C(=O)CO [Deoxycorticosterone] (20 µM) | growth: 1.18

Item: C=C1C[C@H]2[C@@H]3C=C(C)C4=CC(=O)CC[C@]4(C)[C@H]3CC[C@]2(C)[C@@]1(OC(C)=O)C(C)=O [Melengestrol acetate] (20 µM) | growth: 1.17

Item: CC(=O)OCC(=O)[C@@]1(OC(C)=O)[C@@H](C)C[C@H]2[C@@H]3C[C@H](F)C4=CC(=O)C=C[C@]4(C)[C@@]3(F)[C@@H](O)C[C@@]21C [Diflorasone Diacetate] (20 µM) | growth: 1.05

Item: CC(=O)O[C@]1(C(C)=O)CC[C@H]2[C@@H]3C=C(Cl)C4=CC(=O)CC[C@]4(C)[C@H]3CC[C@@]21C [Chlormadinone acetate] (20 µM) | growth: 1.01

Item: Cc1ccsc1/C=C/C1=NCCCN1C [Morantel tartrate] (20 µM) | growth: 1.2

====

- Test system: Ruminococcus gnavus DSM 108212
- ASSAY DETAILS: fold change of Tryptamine concentration vs plate DMSO controls (fold change (ratio)); higher = more amine produced, active = hit call of the paper (significant change in both replicates, either direction)
- PROTOCOL CONDITIONS: incubation time: 27 h, anaerobic, 37 °C
Where a name gives a salt, the structure may show the parent alone.
Kindly supply the reported fold change of Tryptamine concentration values for the records listed here.
// return just the number, without any unit appended

Reported Ruminococcus gnavus DSM 108212 fold change of Tryptamine concentration for item CCCCNC(=N)NC(=N)N [Buformin] (20 µM) was 0.934

Reported Ruminococcus gnavus DSM 108212 fold change of Tryptamine concentration for item Nc1cc(-c2ccncc2)c[nH]c1=O [Amrinone] (20 µM) was 1

Reported Ruminococcus gnavus DSM 108212 fold change of Tryptamine concentration for item CC(=O)N1CCN(c2ccc(OCC3COC(Cn4ccnc4)(c4ccc(Cl)cc4Cl)O3)cc2)CC1 (stereo not given) [Ketoconazole] (20 µM) was 0.984

Reported Ruminococcus gnavus DSM 108212 fold change of Tryptamine concentration for item NNCCc1ccccc1 [Phenelzine sulfate] (20 µM) was 0.995

Reported Ruminococcus gnavus DSM 108212 fold change of Tryptamine concentration for item O=C(O)c1ccccc1Nc1cc(Cl)ccc1C(=O)O [Lobenzarit disodium] (20 µM) was 0.976

====

- Tested on: Escherichia coli IAI1
- ASSAY DETAILS: fold change of Cadaverine concentration vs plate DMSO controls (fold change (ratio)); higher = more amine produced, active = hit call of the paper (significant change in both replicates, either direction);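 for the amine columns active = adjusted P below 0.05 in both replicates with a change the same way and a mean fold change under 0.8 or over 1.25; inactive = the rest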
- PROTOCOL CONDITIONS: incubation time: 27 h, anaerobic, 37 °C
Where a name gives a salt, the structure may show the parent alone.
Can you answer with just one of these options? yes for active, no for inactive

## Input Per the assay record, what outcome was assigned to CCN(CC)CCOC(=O)C1(C2CCCCC2)CCCCC1 [Dicyclomine hydrochloride] (20 µM) ?
## Output no

## Input Per the assay record, what outcome was assigned to Clc1ccc(C(Cn2ccnc2)OCc2ccsc2Cl)c(Cl)c1 (centres undefined) [Tioconazole] (20 µM) ?
## Output no

## Input Per the assay record, what outcome was assigned to CCCc1c2oc(C(=O)O)cc(=O)c2cc2c(=O)cc(C(=O)O)n(CC)c12 [Nedocromil sodium] (20 µM) ?
## Output no

## Input Per the assay record, what outcome was assigned to CC1(C)S[C@@H]2[C@H](NC(=O)C(c3ccccc3)S(=O)(=O)O)C(=O)N2[C@H]1C(=O)O (some centres undefined) [Sulbenicillin sodium salt] (20 µM) ?
## Output yes
